Data origin: ChEMBL document CHEMBL1156822

- Species on record: Homo sapiens
- Assay procedure: Inhibition of human BuChE Y332A mutant assessed as dissociation constant for Michaelis complex formation by enzyme kinetic study
Activity values, listed per item
Recorded endpoint: Activity (µM)

>>> val("CCNC(=O)O[C@H]1CO[C@H]2[C@@H]1OC[C@H]2OC(=O)c1ccccc1O")
0.42
>>> val("O=C(NCc1ccccc1)O[C@H]1CO[C@H]2[C@@H]1OC[C@H]2OC(=O)c1ccccc1")
1.5
>>> val("O=C(NCc1ccccc1)O[C@H]1CO[C@H]2[C@@H]1OC[C@H]2OC(=O)c1ccccc1O")
0.05
>>> val("CCCCNC(=O)O[C@H]1CO[C@H]2[C@@H]1OC[C@H]2OC(=O)c1ccccc1")
1.3
